Target: T1, human IL-23 (human, UniProt P29460 23-328; Q9NPF7 20-189)
T1 construct: Recombinant (Ebioscience); HIS-tagged in flow cytometry, biotinylated in some assays; also called hIL-23; rhIL-23
T1 sequence 1: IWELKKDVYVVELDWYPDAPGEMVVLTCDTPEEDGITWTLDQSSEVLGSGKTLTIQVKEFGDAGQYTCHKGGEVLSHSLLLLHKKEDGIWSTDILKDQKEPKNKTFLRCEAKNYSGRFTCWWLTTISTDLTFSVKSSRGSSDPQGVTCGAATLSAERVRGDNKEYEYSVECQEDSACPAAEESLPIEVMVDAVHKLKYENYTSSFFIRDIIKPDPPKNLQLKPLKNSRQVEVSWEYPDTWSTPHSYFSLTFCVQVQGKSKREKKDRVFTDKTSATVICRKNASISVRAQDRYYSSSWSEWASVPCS
T1 sequence 2: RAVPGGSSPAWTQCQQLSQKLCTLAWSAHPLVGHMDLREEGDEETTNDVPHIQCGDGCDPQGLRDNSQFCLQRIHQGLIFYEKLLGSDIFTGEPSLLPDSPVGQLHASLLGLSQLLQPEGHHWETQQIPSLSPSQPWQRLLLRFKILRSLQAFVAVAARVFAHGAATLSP
Procedure Text: ELISA, coated IL-23
Measurement Kind: binding result

>>> endpoint_value("Antibody 143 (antibody, human IgG1, kappa, V domains shown) VH: EVQLVQSGAEVKKPGATVKISCKASGYTFSDYYLHWVRQAPEKGLEWMGWIDPENGDTEYAPKFQGRVTITADTSTDTGYLELSSLRSEDTAVYYCAANKELRYFDVWGQGTLVTVSS VL: DIQMTQSPSSVSASVGDRVTITCRASQSISINLHWYQQKPHKAPKLLIYFASQSISGVPSRFSGSGSGTDFSLTINSLQPEDFARYYCQQSNSFPLTFGGGTKVEIKR")
"binds"
>>> endpoint_value("Antibody 146 (antibody, human IgG1, kappa, V domains shown) VH: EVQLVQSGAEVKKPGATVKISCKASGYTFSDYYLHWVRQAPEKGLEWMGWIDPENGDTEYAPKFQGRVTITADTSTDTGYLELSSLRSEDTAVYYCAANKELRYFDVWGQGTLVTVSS VL: DIQMTQSPSSVSASVGDRVTITCRASQSISINLHWYQQKPGKAPKLLIYFASQSISGIPSRFSGSGSGTDFSLTINSLQPEDFARYYCQQSNSFPLTFGGGTKVEIKR")
"binds"
>>> endpoint_value("Antibody 133 (antibody, human IgG1, kappa, V domains shown) VH: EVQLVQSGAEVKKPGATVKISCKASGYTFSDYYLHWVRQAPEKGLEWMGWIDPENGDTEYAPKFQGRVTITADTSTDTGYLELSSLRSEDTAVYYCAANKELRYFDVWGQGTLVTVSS VL: DIQMTQSPSSVSASVGDRVTITCRASQSISINLHWYQQKPGEAPKLLIYFASQSISGVPSRFSGSGSGTDFSLTINSLQPEDFATYYCQQSNSFPLTFGGGTKVEIKR")
"binds"
